Each entry below carries its recorded melting point.
Counter-ions that a name gives are not always drawn.

A selection of reference data follows.
| compound | melting point |
| --- | --- |
| COc1ccc(C(=O)Nc2nc3ccc(NC=O)cc3c(NCc3cccs3)c2C#N)cc1 [Example 10] | 223 to 226 °C |
| COc1ccc(C(=O)Nc2nc3ccc(NS(=O)(=O)O)cc3c(NCc3ccccc3)c2C#N)cc1 (as salt: ammonium) [Example 11] | 220 to 222 °C |
| COc1ccc(C(=O)Nc2nc3ccc(N)cc3c(NCc3ccccc3)c2C#N)cc1 [Example 7] | 228 to 230 °C |

Now turn to the next compound.
Documented melting point of CNc1ccc2nc(NC(=O)c3ccc(OC)cc3)c(C#N)c(NCc3ccccc3)c2c1 [Example 9] : 237 to 240 °C
